System under test: T1, Human EphA2-Fc fusion protein (human EphA2 fused with the Fc portion of a human IgG1) (human, UniProt P29317 24-534, limits assumed)
T1 construct: also called biotinylated human EphA2-Fc; not shown: Fc portion of a human IgG1
T1 sequence (P29317 24-534 limits assumed): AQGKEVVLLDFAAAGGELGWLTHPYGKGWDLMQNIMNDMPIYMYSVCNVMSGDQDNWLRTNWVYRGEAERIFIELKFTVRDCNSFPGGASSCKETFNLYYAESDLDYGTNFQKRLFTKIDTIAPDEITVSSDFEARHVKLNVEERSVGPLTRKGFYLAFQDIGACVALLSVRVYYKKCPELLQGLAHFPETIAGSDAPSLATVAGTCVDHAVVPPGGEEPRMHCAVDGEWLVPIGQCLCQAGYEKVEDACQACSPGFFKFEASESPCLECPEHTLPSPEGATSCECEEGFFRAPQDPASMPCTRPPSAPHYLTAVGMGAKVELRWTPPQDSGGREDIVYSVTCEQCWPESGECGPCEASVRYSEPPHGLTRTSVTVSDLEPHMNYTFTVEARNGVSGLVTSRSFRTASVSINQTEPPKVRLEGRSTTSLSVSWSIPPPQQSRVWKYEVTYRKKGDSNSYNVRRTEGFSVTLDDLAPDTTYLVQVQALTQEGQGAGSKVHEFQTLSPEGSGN
Procedure summary: SPR (BIAcore 3000), EphA2-Fc coupled to CM5 chip, IgG in solution, 1:1 Langmuir fit
# kon per record follows
Give the number; M⁻¹ s⁻¹ is assumed, so skip it.

The following binders have reported results that may help.
VH-233/VL-233 IgG (chimaeric form of mAb B233, full length human IgG1) (antibody, V domains shown, Human IgG1 / human kappa constant regions, expressed in HEK 293 cells; also called VH-B233/VL-B233 (chimeric); chimaeric B233) VH: EVKLVESGGGLVQPGGSLSLSCAASGFTFTDYSMNWVRQPPGKALEWLGFIRNKANDYTTEYSASVKGRFTISRDNSQSILYLQMNALRAEDSATYYCVRYPRYHAMDSWGQGTSVTVSS VL: DIVLTQSPATLSVTPGDSVNLSCRASQSISNNLHWYQQKSHESPRLLIKYVFQSISGIPSRFSGSGSGTDFTLSINSVETEDFGMYFCQQSNSWPLTFGAGTKLELK ... 240000
VH-6H11/VL-8G7 (humanized) full length human IgG1 (antibody, V domains shown, Human IgG1 / human kappa, expressed in HEK 293 cells) VH: EVQLVESGGGLVQPGGSLRLSCAASGFTFSDYSMNWVRQAPGKGLEWVAFIRNKANDYTTEYSASVKGRFTISRDNSKNTLYLQMNSLRAEDTAMYYCARYPRYHAMDSWGQGTLVTVSS VL: EIVLTQSPATLSVSPGERATLSCRASQSISNNLHWYQQKPGKAPKSLIYYVFQSISGVPSRFSGSGSGTDFTLTINSLEAEDAATYYCQQSNSWPLTFGGGTKVDIK ... 96000

So what does the record say about kon for VH-7E8/VL-8G7 (humanized) full length human IgG1 (antibody, V domains shown, Human IgG1 / human kappa, expressed in HEK 293 cells) VH: EVQLVESGGGLVKPGGSLRLSCAASGFTFSDYSMNWVRQASGKGLEWVGFIRNKANDYTTEYSASVKGRFTISRDDSKNTLYLQMNSLKTEDTAVYYCTTYPRYHAMDSWGQGTLVTVSS VL: EIVLTQSPATLSVSPGERATLSCRASQSISNNLHWYQQKPGKAPKSLIYYVFQSISGVPSRFSGSGSGTDFTLTINSLEAEDAATYYCQQSNSWPLTFGGGTKVDIK ? 9300

Continue with VH-2G6/VL-12C8 (humanized) full length human IgG1 (antibody, V domains shown, Human IgG1 / human kappa, expressed in HEK 293 cells) VH: EVQLVESGGGVVRPGGSLRLSCAASGFTVSDYSMNWVRQAPGKGLEWIGFIRNKANDYTTEYSASVKGRFTISRDDSKNTLYLQMNSLKTEDTAVYYCTTYPRYHAMDSWGQGTMVTVSS VL: AIQLTQSPSSLSASVGDRVTITCRASQSISNNLHWYLQKPGQSPQLLIYYVFQSISGVPSRFSGSGSGTDFTLTISSLQPEDFATYYCQQSNSWPLTFGGGTKLEIK 64000

// data source = patent US20060228350A1
